method: ATG_BRE_CIS: Attagene CIS-FACTORIAL HepG2 Assay for human Bone Morphogenetic Protein (BMP) Response Element (BRE) (AID 2282933)
conditionSummary: HepG2 BMP response element reporter, Attagene transcription factor profiling; actives raise or lower the signal
The source made the active and inactive calls. How the source made its calls: active means hit-call score of the fitted dose curve at least 0.9, where 1 is the maximum; inactive means score below 0.9.
Your answer must be one of the following: active, inactive

Give the logged outcome of this assay for the following compound: C=C(C)C(=O)Nc1ccc(Cl)c(Cl)c1
active

Try Nc1cc(Cl)c(O)c(Cl)c1 next.
inactive

Try CC1(C)OC[C@@H]2O[C@@]3(C(=O)O)OC(C)(C)O[C@H]3[C@@H]2O1 next.
inactive

Try COc1ccc(NC(=O)CC(C)=O)cc1 next.
inactive

Try CCCCCCCCCCCCSC next.
inactive

Try COc1cc2ncnc(Nc3cccc(Cl)c3)c2cc1OC next.
inactive

Try CCCC(=O)C(C)=O next.
inactive

Try CN(C)CCOCCN(C)C next.
inactive

Try CC(=O)c1c(C)cc(C(C)(C)C)cc1C next.
inactive

Try O=C(Nc1ccccc1)c1cc([N+](=O)[O-])ccc1Cl next.
active

Try O=S(=O)(O)c1cccc2c(S(=O)(=O)O)cccc12 next.
inactive

Try Cc1ccc(O)c(C(C)(C)C)c1 next.
inactive

Try CNCCCC12CCC(c3ccccc31)c1ccccc12 next.
inactive

Try CC[C@]12CCCN3CCc4c(n(c5ccccc45)[C@@](O)(C(=O)OC)C1)[C@@H]32 next.
inactive

Try CC(C)(C)C(=O)c1ccccc1 next.
inactive

Try NCCNCCN next.
inactive

Try O=S(=O)(O)c1ccc(O)c2ncccc12 next.
inactive

Try O=Cc1ccc(F)cc1 next.
inactive

Try CC(C)CCCCCCCOC(=O)c1ccc(C(=O)OCCCCCCCC(C)C)c(C(=O)OCCCCCCCC(C)C)c1 next.
inactive

Try c1ccc2c(c1)c1cccc3ccc4cccc2c4c31 next.
inactive

Try CC(c1cc2ccccc2s1)N(O)C(N)=O (stereo unspecified) next.
inactive

###

experimentalSystem: Signal transducer and activator of transcription 3 (Homo sapiens) (UniProt P40763)
Sequence (P40763 whole entry, looked up): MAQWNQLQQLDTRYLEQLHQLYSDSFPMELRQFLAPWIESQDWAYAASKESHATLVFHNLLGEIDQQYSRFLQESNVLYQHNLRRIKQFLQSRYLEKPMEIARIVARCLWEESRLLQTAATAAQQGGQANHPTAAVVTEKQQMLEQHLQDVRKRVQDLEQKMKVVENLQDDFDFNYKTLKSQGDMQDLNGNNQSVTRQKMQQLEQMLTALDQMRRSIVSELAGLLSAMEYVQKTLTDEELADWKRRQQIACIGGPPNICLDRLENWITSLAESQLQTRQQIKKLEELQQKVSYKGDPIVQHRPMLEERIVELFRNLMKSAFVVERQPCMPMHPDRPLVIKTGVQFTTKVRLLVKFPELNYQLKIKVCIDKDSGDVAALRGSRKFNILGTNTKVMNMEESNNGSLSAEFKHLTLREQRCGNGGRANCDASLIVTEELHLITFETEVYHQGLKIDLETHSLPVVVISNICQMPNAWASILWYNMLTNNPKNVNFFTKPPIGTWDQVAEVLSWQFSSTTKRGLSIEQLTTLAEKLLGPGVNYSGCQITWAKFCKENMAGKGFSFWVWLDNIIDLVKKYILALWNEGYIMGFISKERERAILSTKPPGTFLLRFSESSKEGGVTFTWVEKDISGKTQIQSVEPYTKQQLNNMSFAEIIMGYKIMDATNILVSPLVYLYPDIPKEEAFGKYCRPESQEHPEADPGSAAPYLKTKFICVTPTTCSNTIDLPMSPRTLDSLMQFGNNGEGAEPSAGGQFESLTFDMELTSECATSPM
method: ATG_STAT3_CIS: Attagene CIS-FACTORIAL HepG2 Assay for human Signal Transducer and Activator of Transcription 3 (STAT3) (AID 2282963)
conditionSummary: HepG2, Attagene cis-factorial STAT3 reporter transcription; actives raise or lower the signal
Activity calls are given as the source filed them. How the source made its calls: active means hit-call score of the fitted dose curve at least 0.9, where 1 is the maximum; inactive means score below 0.9.
reportedEndpoint: outcome

Please review the following examples before continuing.
CN(CCOc1ccc(CC2SC(=O)NC2=O)cc1)c1ccccn1 (stereo not drawn) | inactive
COc1ccc(OC)c(OC)c1 | inactive
Cc1ccc(C(C)C)cc1O | inactive
Cc1ccc(C=O)s1 | inactive

Please look up its outcome: NNc1nc(-c2ccc(N)cc2)cs1
inactive

Try c1ccc2sc(SN(C3CCCCC3)C3CCCCC3)nc2c1 next.
inactive

###

Read-out: Matrix Metallopeptidase 1 (MMP1), MMP1 (gene 4312)
method: BSK_MyoF_MMP1: BioMAP Diversity Plus: MyoF Assay for Matrix Metallopeptidase 1 (MMP1) Biomarker Activity (AID 2284268)
conditionSummary: primary human lung fibroblasts
Calls of active or inactive are those of the source. How the source made its calls: active means hit-call score of the fitted dose curve at least 0.9, where 1 is the maximum; inactive means score below 0.9.
Your answer must be one of the following: label 1 for active, label 0 for inactive

Give the logged outcome of this assay for the following molecule: O=C1CCCCCCCCCCCCCCO1
label 1

Try c1ccc2c(c1)c1cccc3ccc4cccc2c4c31 next.
label 0

Try Nc1cc([N+](=O)[O-])ccc1Cl next.
label 0

Try Cc1ccc(O)c(C(C)(C)C)c1 next.
label 0

Try CCCCCCCCCC=O next.
label 0

Try CCCCC/C=C/C=C/C=O next.
label 0

Try O=P(c1ccccc1)(c1ccccc1)c1ccccc1 next.
label 0

###

Read-out: Monocyte Chemoattractant Protein-1 (MCP1), CCL2 (gene 6347)
method: BSK_LPS_MCP1: BioMAP Diversity Plus: LPS Assay for Monocyte Chemoattractant Protein-1 (MCP1) Biomarker Activity (AID 2283081)
conditionSummary: primary human HUVEC with PBMC; actives raise or lower the signal
Active and inactive are the calls of the source. The calls were made as follows: active = hit-call score of the fitted dose curve at least 0.9, where 1 is the maximum; inactive = score below 0.9.
Your answer must be one of the following: y = active, n = inactive

Give the logged outcome of this assay for the following molecule: C=C[Si](OCC)(OCC)OCC
n

Try CCCCC/C=C/C=C/C=O next.
y

Try O=C1OC2(c3cc(Br)c(O)c(Br)c3Oc3c2cc(Br)c(O)c3Br)c2c(Cl)c(Cl)c(Cl)c(Cl)c21 next.
y

Try CC(=O)Nc1ccccc1O next.
n

Try O=P(c1ccccc1)(c1ccccc1)c1ccccc1 next.
n

Try CNC[C@H](O)c1cccc(O)c1 next.
n

Try c1ccc2sc(SN(C3CCCCC3)C3CCCCC3)nc2c1 next.
n

Try C=CCOC(=O)CCC1CCCCC1 next.
n

Try COc1cc(C=O)ccc1OC(=O)C(C)C next.
n

Try BrC1CCC(Br)C(Br)CCC(Br)C(Br)CCC1Br (centres undefined) next.
n

Try Cc1ccc(O)c(C(C)(C)C)c1 next.
y

Try C[C@H]1C[C@@H]2[C@H]([C@@H](O)C[C@@]3(C)[C@H]2CC[C@]3(O)C(=O)CO)[C@@]2(C)C=CC(=O)C=C12 next.
n

Try O=C(O)c1ccc([N+](=O)[O-])cc1 next.
n

Try CC[Si](OC(C)=O)(OC(C)=O)OC(C)=O next.
n

Try OC[C@H]1O[C@H](O[C@]2(CCl)O[C@H](CCl)[C@@H](O)[C@@H]2O)[C@H](O)[C@@H](O)[C@H]1Cl next.
n

Try CCCCC(CC)COC(=O)/C=C\C(=O)OCC(CC)CCCC (centres undefined) next.
n

Try Nc1cc([N+](=O)[O-])ccc1O next.
n

Try Cc1cc(C2(c3cc(C)c(O)cc3C)OS(=O)(=O)c3ccccc32)c(C)cc1O next.
n

Try C#C[C@]1(O)CC[C@H]2[C@@H]3CCC4=Cc5oncc5C[C@]4(C)[C@H]3CC[C@@]21C next.
n

###

experimentalSystem: human Peroxisome Proliferator-activated Receptor delta (PPARd), PPARD (gene 5467) (UniProt Q03181)
Sequence (Q03181 whole entry, looked up): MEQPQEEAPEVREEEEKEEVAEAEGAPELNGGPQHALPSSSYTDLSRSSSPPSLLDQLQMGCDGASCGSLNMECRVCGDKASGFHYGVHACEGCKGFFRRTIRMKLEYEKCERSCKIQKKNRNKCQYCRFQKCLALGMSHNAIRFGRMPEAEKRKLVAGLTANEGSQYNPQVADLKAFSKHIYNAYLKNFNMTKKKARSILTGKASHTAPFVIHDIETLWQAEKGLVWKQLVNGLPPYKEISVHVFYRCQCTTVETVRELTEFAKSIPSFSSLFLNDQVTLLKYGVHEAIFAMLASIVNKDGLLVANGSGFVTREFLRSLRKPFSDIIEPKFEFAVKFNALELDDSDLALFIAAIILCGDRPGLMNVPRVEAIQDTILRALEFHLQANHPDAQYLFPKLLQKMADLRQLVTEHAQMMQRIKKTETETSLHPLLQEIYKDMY
method: ATG_PPARd_TRANS: Attagene TRANS-FACTORIAL HepG2 Assay for human Peroxisome Proliferator-activated Receptor delta (PPARd) (AID 2283002)
Inconclusive results are not listed. Activity calls are given as the source filed them. Rule for the calls: active = hit-call score of the fitted dose curve at least 0.9, where 1 is the maximum; inconclusive = response in the unintended direction; inactive = score below 0.9.
Your answer must be one of the following: yes (1) = active, no (0) = inactive

Give the logged outcome of this assay for the following molecule: c1cc(C(c2ccc(OCC3CO3)cc2)c2ccc(OCC3CO3)cc2)ccc1OCC1CO1 (stereo not given)
no (0)

Try CCCC1CCC(=O)O1 (stereo not given) next.
no (0)

Try CCCCOCCOCCSC#N next.
no (0)

Try O=C1CCCCCCCCCCCCCCO1 next.
yes (1)

Try O=Nc1ccc(Nc2ccccc2)cc1 next.
no (0)

Try OC1C(O)C(O)C(O)C(O)C1O (stereo not given) next.
no (0)

Try Clc1ccc(Cl)c(Cl)c1Cl next.
no (0)

Try CC(C=O)Cc1ccc(C(C)C)cc1 (stereo not given) next.
no (0)

Try CC(=O)C(=O)O next.
no (0)

Try CC1COc2ccccc2N1C(=O)C(Cl)Cl (stereo not given) next.
no (0)

Try COc1ccc(Nc2ccccc2)c(C)c1 next.
no (0)

Try CCCCNC(=O)NS(=O)(=O)c1ccc(C)cc1 next.
no (0)

Try CC(=O)c1c(C)cc(C(C)(C)C)cc1C next.
no (0)

Try Clc1nc(C(Cl)(Cl)Cl)c(Cl)c(Cl)c1Cl next.
no (0)

Try CCCCCCCCCCCCCCCC(=O)OC[C@H](O)[C@H]1OC(=O)C(O)=C1O next.
no (0)

Try C=CC(C)(O)CCC=C(C)CCC=C(C)C (stereo not given) next.
no (0)

Try O=C(O)c1cccc([N+](=O)[O-])c1 next.
no (0)

Try C#C[C@]1(O)CC[C@H]2[C@@H]3CCC4=Cc5oncc5C[C@]4(C)[C@H]3CC[C@@]21C next.
no (0)

Try CCCC/C=C\CCCCCCCCCC=O next.
no (0)

Try CC(C)(C)C(=O)c1ccccc1 next.
no (0)

Try CC1(CO)CN(c2ccccc2)NC1=O (stereo not given) next.
no (0)

Try Nc1cccc(S(=O)(=O)c2cccc(N)c2)c1 next.
no (0)

Try O=C1c2ccccc2C(=O)N1SC1CCCCC1 next.
no (0)

Try CCC(=O)/C=C/C1C(C)=CCCC1(C)C (stereo not given) next.
no (0)

Try COc1cc(C)cc(O)c1 next.
no (0)

###

method: ATG_RORE_CIS: Attagene CIS-FACTORIAL HepG2 Assay for human RAR-related Orphan Receptor Element (RORE) (AID 2282959)
conditionSummary: HepG2 Attagene cis-factorial RORE reporter, mRNA; actives raise or lower the signal
Active and inactive are the calls of the source. How the source made its calls: active means hit-call score of the fitted dose curve at least 0.9, where 1 is the maximum; inactive means score below 0.9.
reportedEndpoint: AC50

CCCCCC(=O)OCCc1ccccc1 | inactive
Cc1ccc(O)c(C(C)(C)C)c1 | 162 µM (active)
OCC(CO)(CO)COCC(CO)(CO)CO | inactive
CC(C)c1cccc(O)c1 | inactive
